Data provenance: the supplement of paper PMC6555819

# System: RXRa DBDmut IVT, anti-RXR (DBD mutation: RXRa K156A/R161A, NR concentration 90 nM)
# protocol-text: PBM binding z-score (relative to random genomic background probes); higher = stronger binding; sequences stand for … in GC…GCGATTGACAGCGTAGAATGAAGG
property: PBM binding z-score
The answer should be written as a number, with no unit following it.

A selection of reference data follows.
Q: Quick one: PBM binding z-score for CCTTACGGGTCAAGGTTATAGCTCGGGTGGTACG ?
Result: 0.811

Q: Value lookup for PBM binding z-score; key = GTACCAAGGTTAATAGGTCGTTGATGAGTAGGCG
Result: 0.518

Q: Quick one: PBM binding z-score for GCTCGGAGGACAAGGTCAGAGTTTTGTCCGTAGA ?
Result: 0.706

Q: Name the recorded PBM binding z-score for TCGAGTAGGTTACCAATGGGGCGTTCAGCTTTCT .
Result: 0.454

Q: Which PBM binding z-score reading was recorded for the sequence CCTACTGGGCGATCAGGTCATTGATATCAACGTT ?
Result: 0.269

Q: Bench note: what PBM binding z-score did TCTAATAGTTGAAGGGCAACCGACGAGTCCGTTT show?
Result: 1.7

Q: What value of PBM binding z-score has been reported for the following sequence? ACAATGAGGTTATTAAGATCAGGGAATTGCGGTC
Result: 2.17

Q: Name the reported PBM binding z-score value associated with the sequence TCTGCTAGGTCACTTGGTCAGCTAACGAGCTGCC
Result: 1.54

New cases:
Q: For ATTCAAAGTTCAGGACGAGGTAACGTAAAGCACG , what is its reported PBM binding z-score?
Result: 2.99

Q: Return reported PBM binding z-score; argument: TAGCCTAGGTCATATCGGGCCAGTATACGCTATA
Result: 1.17

###

# Tested on: RXRa homodimer (NR concentration 180 nM)
# protocol-text: PBM binding z-score (relative to random genomic background probes); higher = stronger binding; sequences stand for … in GC…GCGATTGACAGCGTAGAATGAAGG
Parameter threshold = 0.5. Response is YES when PBM binding z-score meets or exceeds it, else NO.

Consider the worked cases shown below.
Q: Say whether AGAATGAGGTTATTAAGATCACGGAATTGCGGTC shows PBM binding z-score of 0.5 or more.
Result: YES

Q: # bool: PBM binding z-score of GCATATAGGTAAAACAAGGTGAAAGTCCGATTGT >= 0.5
Result: YES

Q: Reported PBM binding z-score reaches at least 0.5 for ATCTCTAGGTAAAATTCAGTGAAAGATCGATAGA ?
Result: NO

Continuing:
Q: Confirm if PBM binding z-score reported for the sequence CGTCCAAGGTCAGAGAGGTAAGTGAATGCCGAGT is 0.5 or above.
Result: YES

Q: Is reported PBM binding z-score greater than or equal to 0.5 here: ATATGTAGGTTATCGTGTCATTCAGTTTGCGCAT
Result: YES

###

Collected PBM binding z-score values appear next to each entry.
# Test system: PPARg:RXRa DBDmut IVT, anti-RXR (DBD mutation: RXRa K156A/R161A, NR concentration 270 nM, RXRa partner concentration 90 nM)
# protocol-text: PBM binding z-score (relative to random genomic background probes); higher = stronger binding; sequences stand for … in GC…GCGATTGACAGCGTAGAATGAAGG
In your answer, state the number alone without any accompanying words.

Use the examples below as a reference point.
Q: What PBM binding z-score value was documented for this sequence, TCTTGTAGATCAACAGGAGGTTAAGACAGATCGA ?
Result: 1.59

Q: Name the reported PBM binding z-score value associated with the sequence CGTCCAAGGTCAGAGAAGTCAGTGAATGCCGAGT
Result: 2.46

Q: Which PBM binding z-score is reported for this sequence? TATACAGGGTCAAAGGCCAGAGTCCGAATGTCGA
Result: 2.36

Q: What value of PBM binding z-score has been reported for the following sequence? GCTATTAGTTGAAAGGGCATCCGAATGATTCTCG
Result: 0.6

Q: Bench note: what PBM binding z-score did TGTATTAGTTGATTAGGGCAACCGAAACAGCGGA show?
Result: 0.222

Q: So what's the measured PBM binding z-score for this one? TCGTATAGGTAAACAGGTGAAAGTCCGTAAGTTA
Result: 2.73

Q: Give its PBM binding z-score value. Item: GGAACGAGGGCTAGTTGATAGCAGAGTTTGATGG
Result: 0.122

Q: Return reported PBM binding z-score; argument: CCTACTGGGCCAAAGGTCATTGATTCCAATGCTC
Result: 5.22

Q: Can you share its PBM binding z-score? I mean this sequence: AATGCAGGGTCATCGTAGGCCAGAGTACGCACAG
Result: 2.83

Q: For CCGTCTGGGGCATAAGGTTACCATAAGCCAGCCC , what is its reported PBM binding z-score?
Result: 1.52

More entries:
Q: For the sequence shown here, ATACTAAGGTGATCGTGAGGTCGTTGATACTAAC , give the reported PBM binding z-score.
Result: 1.4

Q: Which value of PBM binding z-score has been reported for CGAAATAGGTCAGAACAGGACAGTGAAGGATGAT in the records?
Result: 6.51
